The reported numbers originate from ChEMBL document CHEMBL3044970.

Consider the following compounds and their measured MIC readings.
Test system: Mycobacterium tuberculosis
Test: Antimicrobial activity against Mycobacterium tuberculosis H4
Format: functional
Measured attribute: MIC (µg/mL)

>>> observed("Cc1ccccc1C1CC(c2ccccn2)=NN1C(=O)c1ccncc1 (stereo not given)")
8
>>> observed("O=C(c1ccncc1)N1N=C(c2ccccn2)CC1c1cccc(Cl)c1 (stereo not given)")
8
>>> observed("O=C(c1ccncc1)N1N=C(c2ccccn2)CC1c1ccccc1 (stereo not given)")
8
>>> observed("O=C(c1ccncc1)N1N=C(c2ccccn2)CC1c1ccccc1Cl (stereo not given)")
8
>>> observed("O=C(c1ccncc1)N1N=C(c2ccccn2)CC1c1ccc(Cl)cc1 (stereo not given)")
8
